Quick list: GI50 per entry.
# Test system: XF498
# protocol: NCI tumour cell line growth inhibition, 48 h
Active and inactive are the calls of the source. No stated cut-off is given here; in the data, active = GI50 up to about 1.1 µM and inactive = higher.
property: GI50

1) O=C1Nc2ccc(Br)cc2/C1=N/Nc1ccc([N+](=O)[O-])cc1    23.7 µM (inactive)
2) COc1ccc(C(=O)C(c2ccc(OC)cc2)C2C(=O)Oc3ccccc32)cc1 (stereo unspecified)    > 10 µM (inactive)
3) O=C(O)CCNCCCNCCC(=O)O    > 100 µM (inactive)
4) OC1C2C=CCC1CCC2 (stereo unspecified)    > 100 µM (inactive)
5) CCC12CCCNC1c1c(n(C)c3ccccc13)C(C(=O)OC)C2 (stereo unspecified)    51.6 µM (inactive)
6) CCCCNC(=O)C1C2CCC(O2)C1C(=O)O (stereo unspecified)    3.41 µM (inactive)
7) CCOC(=O)C1=C(C)N(NC(N)=O)C(C)(O)C12CCOC2=O (stereo unspecified)    > 100 µM (inactive)
8) COc1c2c(c3c(c1C1OC(C)[C@@H](C)O1)CC(C)(C)O3)C(=O)c1ccccc1C2=O (stereo partly specified)    41 µM (inactive)
9) CCOc1ccc2c(c1)[n+]([O-])c(-c1ccccc1Cl)c(N)[n+]2[O-]    > 100 µM (inactive)
10) Cc1cccc(C(C)(C)C)c1NC(=O)CCc1nnc(S)[nH]1    > 100 µM (inactive)
11) C=CCOC1CC(n2cnc3c(N)ncnc32)OC1CO (stereo unspecified)    > 100 µM (inactive)
12) COc1ccccc1NC(=O)c1nc2ccc([N+](=O)[O-])cc2nc1C    21 µM (inactive)
13) CN(C)CCc1ccc(Cl)cc1Cl    > 100 µM (inactive)
14) O=C(O)/C=C/c1ccncc1    > 100 µM (inactive)
15) O=c1oc2c(ccc3occc32)c(N2CCCCC2)c1-c1ccccc1    > 100 µM (inactive)
16) Cc1cccc(C(C)C)c1NC(=O)CC1C(=O)Nc2ccccc2S1(=O)=O (stereo unspecified)    27.6 µM (inactive)

====

# System: COLO 205
# protocol: NCI tumour cell line growth inhibition, 48 h
Activity calls are given as the source filed them. Rule as the data show it: active = GI50 up to about 1.1 µM and inactive = higher.
Outcome codes: active, inactive

1. CCCCCCCC/C=C\CCCCCCCC(=O)NCCN(CCN)C(=O)CCCCCCC/C=C\CCCCCCCC    inactive
2. CC1(c2cccc(Cl)c2)CC(c2cccc(Cl)c2)=C(C#N)C(=C(C#N)C#N)N1 (configuration not stated)    inactive
3. COc1ccc(-c2nc(SCC(=O)N/N=C/c3ccc(O)c(OC)c3)[nH]c2-c2ccc(OC)cc2)cc1    inactive
4. Cc1cc(S(=O)(=O)NC2=Nc3cccc(F)c3CN2)c(S)cc1Cl    inactive
5. O=C(Cc1ccc([N+](=O)[O-])c([N+](=O)[O-])c1CC(=O)C(=O)Nc1cc(Cl)ccc1Cl)C(=O)Nc1cc(Cl)ccc1Cl    inactive
6. O=[N+]([O-])c1cc(CCl)ccc1CCl    inactive
7. COC(=O)/C(C#N)=C1\NN=NN1CCCc1ccccc1    inactive
8. O=C1NCC2(CCNCC2)N1    inactive
9. Cc1ccc(S(=O)(=O)c2c(N)c3nccn3c3nc4ccccc4nc23)cc1    inactive
10. O=C1CNc2cc(N3CCOCC3)ccc2N1    inactive
11. C/C(=N\NS(=O)(=O)c1ccc(C)cc1)P(=O)(O)O    inactive
12. COc1cc(O)c(C(=O)/C=C/c2ccc(O)cc2)cc1Oc1ccc(C(=O)/C=C/c2ccc(O)cc2)c(O)c1    inactive
13. Nc1nc(S)nc2snnc12    inactive
14. O=C(Cc1ccccc1)Oc1ccc2c(-c3ccccc3)c(C(=O)Nc3ccc(Cl)cc3)c(=O)oc2c1    inactive
15. CS(=O)(=O)c1nc(-c2cc3c(c(S(C)(=O)=O)n2)CCCC3)cc2c1CCCCC2    inactive
16. CC(C(O)c1ccccc1)C(O)(C(F)(F)F)C(F)(F)F (configuration not stated)    inactive
17. O=C1CC(=O)NC(NN2C(=O)/C(=C/C(=O)c3ccco3)N=C2c2ccccc2)=N1    inactive
18. CN(C)/N=C(\CCN1CCCC1)CC(c1ccccc1)c1c(O)c2ccccc2oc1=O (configuration not stated)    inactive
19. CCOC(=O)c1c(Nc2ccccc2)sc2cccnc12    active
20. CC(NC1CCCC[C@@H]1O)c1ccccc1 (some centres not stated)    inactive
21. O=C(O)c1cc2ccc(Cl)cc2c(O)c1C1=CCCCC1    inactive
22. CCOC(=O)C1c2[nH]c3ccccc3c2CCN1C(=O)c1ccc(OC)o1 (configuration not stated)    inactive
23. O=C(CSc1c2ccccc2nc2ccccc12)Nc1ccccc1-c1ccccc1NC(=O)CSc1c2ccccc2nc2ccccc12    inactive
24. Cc1cn(CCCCCCC2=NCCCN2)c(=O)[nH]c1=O    inactive
25. COC(=O)/C(=C\C(=O)c1ccc(Br)cc1)NN=C(c1ccccc1)c1ccccc1    inactive
26. CCOc1ccc2c(c1)[n+]([O-])c(-c1ccccc1Cl)c(N)[n+]2[O-]    inactive
27. CCOC(=O)NC(=O)c1cn(CCSCCOC(=O)NCCCCCCNC(=O)OCCSCCn2cc(C(=O)NC(=O)OCC)c(=O)n(C)c2=O)c(=O)n(C)c1=O    inactive
28. FC1(F)[Se]C2C3CCC(C3)C2C1(F)F (configuration not stated)    inactive
29. CCN1CCN(c2ccc(Nc3ccnc4ccc5c(nnn5C)c34)cc2)CC1    inactive
30. CN1CCN(CCCN)CC1    inactive
31. O=CNNC(=O)CSc1nc2ccc(I)cc2c(=O)n1Cc1ccccc1    inactive
32. Cc1cccc2c(=O)c([Se]c3coc4c(C)cccc4c3=O)coc12    inactive
33. CC(C)(Cl)C(Br)CC/C(CBr)=C(/Cl)CCl.CC(C)(Cl)C(Br)CC/C(CBr)=C(\Cl)CCl (configuration not stated)    active
34. CCOC(=O)C1=C(Nc2ccc(Cl)cc2Cl)OC/C1=N\NS(=O)(=O)c1ccc(C)cc1    inactive
35. CCN(CC)CCOCCn1c2c(c3ccccc31)CCCC2    inactive
36. Cc1cc(C#N)c(Nc2c(C)cccc2[N+](=O)[O-])s1    inactive
37. CCN(CC)CCCNc1nc(=O)[nH]c(C)c1C(=O)Nc1cccc2cc3ccccc3cc12    inactive
38. COC(=O)/C=C1/OC(c2ccccc2)=C(Br)C1=O    inactive
39. Cc1cn(C2CC(/[N+]([O-])=N\Nc3ccc([N+](=O)[O-])cc3)C(CO)O2)c(=O)[nH]c1=O (configuration not stated)    inactive
40. CCC12CCCNC1c1c(n(C)c3ccccc13)C(C(=O)OC)C2 (configuration not stated)    inactive
41. Cc1ccc(-n2c(N)c(C#N)c3[nH]nc(N)c3c2=O)cc1    inactive
42. COc1ccccc1NC(=O)c1nc2ccc([N+](=O)[O-])cc2nc1C    inactive
